# METHOD_SUMMARY: Cytotoxicity against human U2940 cells after 48 hrs by CellTitre-Blue assay
# Assay type: functional, cell-based
# REPORTED_CONDITIONS: U-2940, 48 h
Kindly state log10(IC50) for each of the entries shown.
Values reflect log10 of reported IC50 (µM).

Lab note: measured log10(IC50) of CCOc1ccccc1C(=O)/C=C/c1ccc2sccc2c1 was 0.96

The recorded log10(IC50) for entry CCOc1ccccc1C(=O)/C=C/c1cc2ccccc2c2ccccc12 equals 1.60

Entry under test: CCOc1ccccc1C(=O)/C=C/c1cc2ccccc2[nH]1 . Its log10(IC50) was 0.46

Just so you know, measured log10(IC50) for CCOc1cccc(C(=O)/C=C/c2csc3ccccc23)c1 came out at 0.88

The reported value for COc1ccccc1C(=O)/C=C/c1ccc2ccccc2c1 in terms of log10(IC50) is 0.61

Notebook: CCCOc1ccccc1C(=O)/C=C/c1ccc2ccccc2c1 , log10(IC50) read as 0.72

----------
# METHOD_SUMMARY: Cytotoxicity against human HL60 cells after 48 hrs by CellTitre-Blue assay
# Type: functional, cell-based
# REPORTED_CONDITIONS: HL-60, 48 h
PARAMETER: IC50
Answer format reminder: number followed by unit.

Quick note, IC50 for CCOc1ccccc1C(=O)/C=C/c1cc2ccccc2[nH]1 landed at 16 nM

----------
# METHOD_SUMMARY: Cytotoxicity against human OCI-LY7 cells after 48 hrs by CellTitre-Blue assay
# Format: functional, cell-based
# REPORTED_CONDITIONS: OCI-Ly7, 48 h
pIC50: −log10 of the molar value.
Respond with Criterion met for pIC50 values of 6 and above, Criterion not met for values below.

Check the entry CCCOc1ccccc1C(=O)/C=C/c1ccc2ccccc2c1 : does pIC50 equal or exceed 6?
Criterion met

Determine whether this compound has pIC50 no lower than 6: CCOc1ccccc1C(=O)/C=C/c1cc2ccccc2[nH]1
Criterion met

Tell me whether pIC50 is at least 6 here: C=Cc1cccc(/C=C/C(=O)c2ccccc2OCC)c1
Criterion met

Entry COc1ccccc1C(=O)/C=C/c1ccc2ccccc2c1 : is its pIC50 no less than 6?
Criterion met

Does the reported pIC50 for CCOc1ccccc1C(=O)/C=C/c1c2ccccc2cc2ccccc12 fall at or above the 6 mark?
Criterion not met

Is it the case that CCOc1ccccc1C(=O)/C=C/c1ccc2ccccc2c1 has pIC50 reaching or exceeding 6?
Criterion met

Threshold query (pIC50 >= 6) on CCOc1ccccc1C(=O)/C=C/c1ccc2sccc2c1
Criterion met

Tell me whether pIC50 is at least 6 here: CCOc1ccc(C(=O)/C=C/c2cc3ccccc3[nH]2)cc1
Criterion not met

// inclusive: pIC50 at least 6? input: Cc1ccccc1C(=O)/C=C/c1ccc2ccccc2c1
Criterion not met

Does the reported pIC50 for CCOc1cccc(C(=O)/C=C/c2csc3ccccc23)c1 fall at or above the 6 mark?
Criterion not met

Please indicate if the recorded pIC50 for CCOc1cccc(C(=O)/C=C/c2cc3ccccc3[nH]2)c1 meets or exceeds 6.
Criterion not met

Dear colleague, could you confirm whether CC(C)Oc1ccccc1C(=O)/C=C/c1ccc2ccccc2c1 has pIC50 at or above 6?
Criterion met

Identify whether the reported pIC50 of the following compound is 6 or greater: CCOc1ccccc1C(=O)/C=C/c1csc2ccccc12
Criterion met

Is reported pIC50 greater than or equal to 6 here: CCOc1ccccc1C(=O)/C=C/c1ccc2c(c1)OCO2
Criterion met

Confirm if pIC50 reported for the compound CCOc1cccc(C(=O)/C=C/c2ccc3ccccc3c2)c1 is 6 or above.
Criterion not met

Determine whether this compound has pIC50 no lower than 6: CCCCOc1ccccc1C(=O)/C=C/c1ccc2ccccc2c1
Criterion met

Please check the record CCOc1ccc(C(=O)/C=C/c2csc3ccccc23)cc1 and state if its pIC50 is at or above 6.
Criterion not met
